experimental-target: T1, ArtA (Staphylococcus aureus plasmid pSK41, UniProt Q52270 1-62)
T1 sequence: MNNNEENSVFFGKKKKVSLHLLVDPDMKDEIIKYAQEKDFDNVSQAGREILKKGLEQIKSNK
test-details: fluorescence polarization
reported-property: pKd
// field semantics: pKd = negative decimal log of concentration (mol/L)

Requested field: pKd. Item: Porf538 21-mer (dsDNA) DNA 1: ACACGACATGAAATGACACGT DNA 2: ACGTGTCATTTCATGTCGTGT
7.22

The measured values listed here are drawn from paper PMC2777438.
